System: Escherichia coli
Assay: Synergistic antibacterial activity against NDM-1 producing Escherichia coli assessed ass MIC of ceftazidime/avibactam at 32 ug/ml by broth microdilution method
Type: functional
Conditions: dose 32 µg/ml
MIC for assorted compounds

Here is how some compounds turned out for MIC.
[[record]]
structure_string = "O=C(O)c1ccccc1/C=N/n1c(Cc2ccc3ccccc3c2)n[nH]c1=S"
assay_system = "Escherichia coli"
result_type = "MIC"
observed_value = "> 256 mg/L"

[[record]]
structure_string = "Oc1ccc(/C=N/n2c(-c3ccc(-c4ccccc4)cc3)n[nH]c2=S)c(O)c1"
assay_system = "Escherichia coli"
result_type = "MIC"
observed_value = "> 256 mg/L"

[[record]]
structure_string = "S=c1[nH]nc(-c2cccc(-c3ccccc3)c2)n1/N=C/c1ccc(OCc2ccccc2)cc1"
assay_system = "Escherichia coli"
result_type = "MIC"
observed_value = "> 256 mg/L"


Then this compound:
Ask: I'm curious: which MIC was measured for `O=C(O)c1ccccc1/C=N/n1c(-c2ccc(-c3ccccc3)cc2)n[nH]c1=S` tested on Escherichia coli?
Reply: > 256 mg/L

* * *

Test: Inhibition of beta-lactamase L1 (unknown origin) expressed in Escherichia coli BL21(DE3) using nitrocefin as substrate by measuring substrate hydrolysis at 100 uM preincubated for 30 mins by spectrophotometric analysis
The source made the active and inactive calls. The calls are words filed in the database; no cut-off is given here.
RESULT TYPE: inhibition

[[record]]
structure_string = "O=C(O)c1ccccc1/C=N/n1c(-c2cccc(F)c2)n[nH]c1=S"
result_type = "inhibition"
observed_value = "40%"

[[record]]
structure_string = "Cc1ccccc1-c1n[nH]c(=S)n1/N=C/c1cccc(O)c1O"
result_type = "inhibition"
observed_value = "55%"

[[record]]
structure_string = "S=c1[nH]nc(-c2ccc(Cl)cc2)n1/N=C/c1ccc(OCc2ccccc2)cc1"
result_type = "inhibition"
observed_value = "40%"

[[record]]
structure_string = "Cc1ccccc1-c1n[nH]c(=S)n1/N=C/c1ccccc1"
result_type = "inhibition"
observed_value = "inactive"

[[record]]
structure_string = "Oc1ccc(/C=N/n2c(-c3ccccc3-c3ccccc3)n[nH]c2=S)c(O)c1"
result_type = "inhibition"
observed_value = "inactive"

[[record]]
structure_string = "Oc1ccc(/C=N/n2c(Cc3ccccc3)n[nH]c2=S)c(O)c1"
result_type = "inhibition"
observed_value = "46%"

[[record]]
structure_string = "Fc1cccc(-c2n[nH]c(=S)n2/N=C/c2ccc(OCc3ccccc3)cc2)c1"
result_type = "inhibition"
observed_value = "inactive"

[[record]]
structure_string = "S=c1[nH]nc(CC(c2ccccc2)c2ccccc2)n1/N=C/c1ccc(OCc2ccccc2)cc1"
result_type = "inhibition"
observed_value = "inactive"

[[record]]
structure_string = "Oc1ccc(/C=N/n2c(-c3ccc(OCc4ccccc4)cc3)n[nH]c2=S)c(O)c1"
result_type = "inhibition"
observed_value = "inactive"


Then this compound:
Ask: // inhibition lookup, key: `Cc1ccccc1-c1n[nH]c(=S)n1/N=C/c1ccc(O)cc1`
Reply: 43%

* * *

Assay: Inhibition of beta-lactamase VIM4 (unknown origin) expressed in Escherichia coli BL21(DE3) using imipenem as substrate by measuring substrate hydrolysis at 100 uM by spectrophotometric analysis
inhibition for assorted molecules
Numbers only; they are read as %.

Ask: // inhibition lookup, key: `O=C(O)c1ccccc1/C=N/n1c(-c2ccccn2)n[nH]c1=S`
Reply: 62

* * *

inhibition zone (IZ) for assorted compounds
Test: Inhibition of beta-lactamase VIM-2 (unknown origin) expressed in Escherichia coli LZ2310 assessed as potentiation of cefoxitin antibacterial activity by measuring cefoxitin induced diameter of inhibition zone at 320 uM incubated for 18 hrs by disk diffusion method (reference value: 14 mm)
Numbers only; they are read as mm.

[[record]]
structure_string = "O=C(O)c1ccccc1/C=N/n1c(-c2cccc(-c3ccccc3)c2)n[nH]c1=S"
result_type = "inhibition zone (IZ)"
observed_value = 15

[[record]]
structure_string = "O=C(O)c1ccccc1/C=N/n1c(-c2ccccc2O)n[nH]c1=S"
result_type = "inhibition zone (IZ)"
observed_value = 17

[[record]]
structure_string = "O=C(O)c1ccccc1/C=N/n1c(-c2cccc(Cl)c2)n[nH]c1=S"
result_type = "inhibition zone (IZ)"
observed_value = 14


Then this compound:
Ask: // inhibition zone (IZ) lookup, key: `S=c1[nH]nc(-c2ccc(-c3ccccc3)cc2)n1/N=C/c1ccc(OCc2ccccc2)cc1`
Reply: 16

* * *

Assay: Inhibition of beta-lactamase IMP-1 (unknown origin) expressed in Escherichia coli BL21(DE3) using imipenem as substrate by measuring substrate hydrolysis at 100 uM by spectrophotometric analysis
The source made the active and inactive calls. The calls are words filed in the database; no cut-off is given here.
RESULT TYPE: inhibition

Here is how some compounds turned out for inhibition.
[[record]]
structure_string = "Oc1ccc(/C=N/n2c(-c3ccc(Cl)cc3)n[nH]c2=S)c(O)c1"
result_type = "inhibition"
observed_value = "67%"

[[record]]
structure_string = "Oc1ccc(/C=N/n2c(C(c3ccccc3)c3ccccc3)n[nH]c2=S)c(O)c1"
result_type = "inhibition"
observed_value = "inactive"

[[record]]
structure_string = "O=C(O)c1ccccc1/C=N/n1c(-c2ccncc2)n[nH]c1=S"
result_type = "inhibition"
observed_value = "45%"

[[record]]
structure_string = "O=C(O)c1ccccc1/C=N/n1c(-c2ccccn2)n[nH]c1=S"
result_type = "inhibition"
observed_value = "inactive"

[[record]]
structure_string = "O=C(O)c1ccccc1/C=N/n1c(-c2ccccc2)n[nH]c1=S"
result_type = "inhibition"
observed_value = "inactive"

[[record]]
structure_string = "Oc1ccc(/C=N/n2c(-c3cccc(Br)c3)n[nH]c2=S)c(O)c1"
result_type = "inhibition"
observed_value = "inactive"


Ask: // inhibition lookup, key: `O=C(O)c1cccc(-c2cccc(/C=N/n3c(-c4ccc5ccccc5c4)n[nH]c3=S)c2)c1`
Reply: inactive

Ask: // inhibition lookup, key: `COc1ccc(O)c(-c2n[nH]c(=S)n2/N=C/c2ccccc2C(=O)O)c1`
Reply: inactive

Ask: // inhibition lookup, key: `O=C(O)c1ccccc1/C=N/n1c(C(c2ccccc2)c2ccccc2)n[nH]c1=S`
Reply: inactive

Ask: // inhibition lookup, key: `Cc1ccccc1-c1n[nH]c(=S)n1/N=C/c1ccccc1`
Reply: 34%

* * *

Assay: Inhibition of beta-lactamase IMP-1 (unknown origin) expressed in Escherichia coli BL21(DE3) using imipenem as substrate by measuring substrate hydrolysis at 200 uM by spectrophotometric analysis
The source made the active and inactive calls. The rule behind the calls is not given here.
RESULT TYPE: inhibition

Here is how some compounds turned out for inhibition.
[[record]]
structure_string = "O=C(O)c1ccccc1/C=N/n1c(-c2ccc3ccccc3c2O)n[nH]c1=S"
result_type = "inhibition"
observed_value = "inactive"

[[record]]
structure_string = "S=c1[nH]nc(C(c2ccccc2)c2ccccc2)n1/N=C/c1ccc(OCc2ccccc2)cc1"
result_type = "inhibition"
observed_value = "50%"

[[record]]
structure_string = "O=C(O)c1ccccc1/C=N/n1c(-c2ccccn2)n[nH]c1=S"
result_type = "inhibition"
observed_value = "inactive"

[[record]]
structure_string = "COc1ccc(O)c(-c2n[nH]c(=S)n2/N=C/c2ccccc2C(=O)O)c1"
result_type = "inhibition"
observed_value = "inactive"

[[record]]
structure_string = "O=C(O)c1ccccc1/C=N/n1c(-c2ccccc2-c2ccccc2)n[nH]c1=S"
result_type = "inhibition"
observed_value = "inactive"


Then this compound:
Ask: // inhibition lookup, key: `O=C(O)c1ccccc1/C=N/n1c(-c2ccccc2)n[nH]c1=S`
Reply: inactive

* * *

Assay: Inhibition of beta-lactamase L1 (unknown origin) expressed in Escherichia coli BL21(DE3) using nitrocefin as substrate by measuring substrate hydrolysis at 100 uM preincubated for 30 mins by spectrophotometric analysis
Activity calls are given as the source filed them. The rule behind the calls is not given here.
RESULT TYPE: inhibition

Here is how some molecules turned out for inhibition.
[[record]]
structure_string = "Cc1ccccc1-c1n[nH]c(=S)n1/N=C/c1cc(O)ccc1O"
observed_value = "48%"

[[record]]
structure_string = "O=C(O)c1ccccc1/C=N/n1c(-c2cccc(C(F)(F)F)c2)n[nH]c1=S"
observed_value = "40%"

[[record]]
structure_string = "Oc1ccc(/C=N/n2c(-c3ccccc3O)n[nH]c2=S)c(O)c1"
observed_value = "31%"

[[record]]
structure_string = "O=C(O)c1ccccc1/C=N/n1c(-c2ccccc2-c2ccccc2)n[nH]c1=S"
observed_value = "inactive"

[[record]]
structure_string = "Oc1ccc(/C=N/n2c(-c3cc4ccccc4[nH]3)n[nH]c2=S)c(O)c1"
observed_value = "inactive"


Ask: // inhibition lookup, key: `Oc1ccc(/C=N/n2c(-c3ccc(-c4ccccc4)cc3)n[nH]c2=S)c(O)c1`
Reply: inactive

* * *

Experiment: Inhibition of beta-lactamase NDM-1 (unknown origin) expressed in Escherichia coli LZ2310 assessed as potentiation of ceftazidime antibacterial activity by measuring ceftazidime induced diameter of inhibition zone at 40 uM incubated for 18 hrs by disk diffusion method (reference value: 15 mm)
RESULT TYPE: inhibition zone (IZ)
Give me the value, and tack the unit on after it.

[[record]]
structure_string = "O=C(O)c1ccccc1/C=N/n1c(-c2cccc(C(F)(F)F)c2)n[nH]c1=S"
observed_value = "15 mm"

[[record]]
structure_string = "O=C(O)c1ccccc1/C=N/n1c(CCc2ccccc2)n[nH]c1=S"
observed_value = "15 mm"


Then this molecule:
Ask: // inhibition zone (IZ) lookup, key: `O=C(O)c1ccccc1/C=N/n1c(CC(c2ccccc2)c2ccccc2)n[nH]c1=S`
Reply: 15 mm
